The measurements presented in this section are drawn from patent US6720331B2.

system: U-937 (histiocytic lymphoma); assay: alamarBlue anti-proliferation assay, Lymphoma U-937; type: cell-based, human; settings: U-937, 72 hour, semi-quantitative; read-out: Estimated cIC50 (footnote c: LC50, 50% Lethal Concentration)
RECORDED ENDPOINT: LC50 (50% lethal concentration) (µM)
Field: numeric (µM). Do not append units.

Lab request: please report LC50 (50% lethal concentration) under test system U-937 (histiocytic lymphoma) for CCn1c2ccccc2c2cc(C3=NCCc4c3[nH]c3ccccc43)ccc21 [Compound 29]
18.3

====

Tested on: MCF-7 (breast adenocarcinoma)
Test: alamarBlue anti-proliferation assay, Breast MCF-7
Assay type: cell-based, human
Conditions: MCF-7, 72 hour, semi-quantitative; read-out: Estimated cIC50 (footnote c: LC50, 50% Lethal Concentration)
Protocol: The growth effects of compound 29 was tested on 8 different human tumour cell lines. Changes in cell proliferation based on the ability of viable cells to cause alamar Blue to change from its oxidized (non-fluorescent, blue) to a reduced (fluorescent, red) form were evaluated. With the results obtained from the alamarBlue reaction, cell proliferation was quantified and metabolic activity of viable cells examined. […]
RECORDED ENDPOINT: LC50 (50% lethal concentration) (µM)
Field: numeric (µM). Do not append units.

Request the reported LC50 (50% lethal concentration) associated with `CCn1c2ccccc2c2cc(C3=NCCc4c3[nH]c3ccccc43)ccc21`
8.3

====

IC50: recorded values
test system: P-388 (murine leukemia); experiment: Growth inhibition of tumor cell line P-388 (Table 1); type: cell-based; details: Mus musculus, P388, 72 h; 3 day drug exposure; columns A/B = scaffold type; read-out: IC50, concentration inhibiting 50% of the growth of P-388

COc1ccc(C2=NCCc3c2[nH]c2ccccc32)cc1OC [Compound 23]	2.7 mg/L
COc1cc(C2=NCCc3c2[nH]c2ccccc32)cc(OC)c1OC [Compound 26]	1.2 mg/L
O=[N+]([O-])c1ccc(C2NCCc3c2[nH]c2ccccc32)cc1 (centres unmarked) [Compound 6]	0.8 mg/L
Clc1ccc(C2NCCc3c2[nH]c2ccccc32)cc1 (centres unmarked) [Compound 4]	0.2 mg/L
COc1ccc(C2=NCCc3c2[nH]c2ccccc32)c(OC)c1 [Compound 22]	0.6 mg/L
COc1cc(OC)cc(C2=NCCc3c2[nH]c2ccccc32)c1 [Compound 25]	0.4 mg/L

# input for lookup
Lab request: please report IC50 under test system P-388 (murine leukemia) for COc1ccc(OC)c(C2NCCc3c2[nH]c2ccccc32)c1 (centres unmarked) [Compound 11]
2.6 mg/L

====

tested on: T47D (breast ductal carcinoma); experiment: alamarBlue anti-proliferation assay, Breast T47D; assay type: cell-based, human; conditions: 72 hour, semi-quantitative, read-out: Estimated cIC50 (footnote c: LC50, 50% Lethal Concentration)
RECORDED ENDPOINT: LC50 (50% lethal concentration)
Output should be the measured figure followed by the unit it is expressed in.

Request the reported LC50 (50% lethal concentration) associated with `CCn1c2ccccc2c2cc(C3=NCCc4c3[nH]c3ccccc43)ccc21`
19.2 µM

====

test system: KB-16 (human nasopharyngeal carcinoma); test: Growth inhibition of tumor cell line KB-16 (Table 1); assay type: cell-based; conditions: 3 day drug exposure; columns A/B = scaffold type
RECORDED ENDPOINT: IC50, concentration inhibiting 50% of the growth of KB-16 (µg/mL)
Field: numeric (µg/mL). Do not append units.

Previously resolved entries follow.
CCn1c2ccccc2c2cc(C3NCCc4c3[nH]c3ccccc43)ccc21 (centres unmarked)	0.8
CCN(CC)c1ccc(C2NCCc3c2[nH]c2ccccc32)cc1 (centres unmarked)	0.2
c1ccc2c(c1)Cc1cc(C3NCCc4c3[nH]c3ccccc43)ccc1-2 (centres unmarked)	0.4

# input for lookup
Request the reported IC50, concentration inhibiting 50% of the growth of KB-16 associated with O=[N+]([O-])c1cc(C2NCCc3c2[nH]c2ccccc32)cc2c1OCO2 (centres unmarked)
6.0

====

tested on: P-388 (murine leukemia); assay: Growth inhibition of tumor cell line P-388 (Table 1); assay type: cell-based; settings: 3 day drug exposure; columns A/B = scaffold type
RECORDED ENDPOINT: IC50, concentration inhibiting 50% of the growth of P-388 (µg/mL)
Field: numeric (µg/mL). Do not append units.

Previously resolved entries follow.
CCn1c2ccccc2c2cc(C3NCCc4c3[nH]c3ccccc43)ccc21 (centres unmarked) [Compound 16]	0.7
CCN(CC)c1ccc(C2NCCc3c2[nH]c2ccccc32)cc1 (centres unmarked) [Compound 8]	0.07
O=[N+]([O-])c1cc(C2NCCc3c2[nH]c2ccccc32)cc2c1OCO2 (centres unmarked) [Compound 14]	0.3

# input for lookup
Request the reported IC50, concentration inhibiting 50% of the growth of P-388 associated with c1ccc2c(c1)Cc1cc(C3NCCc4c3[nH]c3ccccc43)ccc1-2 (centres unmarked) [Compound 15]
0.1

====

tested on: PC-6 (lung carcinoma); experiment: alamarBlue anti-proliferation assay, Lung PC-6; type: cell-based, human; conditions: PC-6, 72 hour, semi-quantitative; read-out: Estimated cIC50 (footnote c: LC50, 50% Lethal Concentration)
RECORDED ENDPOINT: LC50 (50% lethal concentration) (µM)
Field: numeric (µM). Do not append units.

Lab request: please report LC50 (50% lethal concentration) under test system PC-6 (lung carcinoma) for `CCn1c2ccccc2c2cc(C3=NCCc4c3[nH]c3ccccc43)ccc21`
32.5

====

test system: KB-16 (human nasopharyngeal carcinoma); test: Growth inhibition of tumor cell line KB-16 (Table 1); type: cell-based; conditions: Homo sapiens, KB16, 72 h; 3 day drug exposure; columns A/B = scaffold type; read-out: IC50, concentration inhibiting 50% of the growth of KB-16
IC50: recorded values
Field: numeric (µg/mL). Do not append units.

Previously resolved entries follow.
O=[N+]([O-])c1ccc(C2NCCc3c2[nH]c2ccccc32)cc1 (stereo not shown)	1.1
COc1cc(C2NCCc3c2[nH]c2ccccc32)cc(OC)c1OC (stereo not shown)	8.3
COc1ccc(C2NCCc3c2[nH]c2ccccc32)c(OC)c1 (stereo not shown)	0.7
CCN(CC)c1ccc(C2=NCCc3c2[nH]c2ccccc32)cc1	0.3
COc1ccc(C2=NCCc3c2[nH]c2ccccc32)cc1OC	15

# input for lookup
Lab request: please report IC50 under test system KB-16 (human nasopharyngeal carcinoma) for `COc1ccc(OC)c(C2=NCCc3c2[nH]c2ccccc32)c1`
0.7

====

test system: KB-16 (human nasopharyngeal carcinoma); assay: Growth inhibition of tumor cell line KB-16 (Table 1); format: cell-based; conditions: Homo sapiens, KB16, 72 h; 3 day drug exposure; columns A/B = scaffold type; read-out: IC50, concentration inhibiting 50% of the growth of KB-16
IC50: recorded values
Field: numeric (µg/mL). Do not append units.

Request the reported IC50 associated with `COc1cc(OC)cc(C2=NCCc3c2[nH]c2ccccc32)c1`
1

Request the reported IC50 associated with `CN(C)c1ccc(C2=NCCc3c2[nH]c2ccccc32)cc1`
4.8

Request the reported IC50 associated with `COc1ccc(C2=NCCc3c2[nH]c2ccccc32)c(OC)c1`
2.7

Request the reported IC50 associated with Brc1ccc(C2NCCc3c2[nH]c2ccccc32)cc1 (stereo not shown)
2.1

Request the reported IC50 associated with `COc1cc(C2=NCCc3c2[nH]c2ccccc32)cc(OC)c1OC`
1.4

Request the reported IC50 associated with CN(C)c1ccc(C2NCCc3c2[nH]c2ccccc32)cc1 (stereo not shown)
1.7

Request the reported IC50 associated with COc1ccc(OC)c(C2NCCc3c2[nH]c2ccccc32)c1 (stereo not shown)
3.7

Request the reported IC50 associated with Clc1ccc(C2NCCc3c2[nH]c2ccccc32)cc1 (stereo not shown)
0.7

Request the reported IC50 associated with COc1cc(OC)cc(C2NCCc3c2[nH]c2ccccc32)c1 (stereo not shown)
1.4

====

Tested on: PC-3 (prostate adenocarcinoma)
Experiment: alamarBlue anti-proliferation assay, Prostate PC-3
Type: cell-based, human
Conditions: PC-3, 72 hour, semi-quantitative; read-out: Estimated cIC50 (footnote c: LC50, 50% Lethal Concentration)
Protocol: The growth effects of compound 29 was tested on 8 different human tumour cell lines. Changes in cell proliferation based on the ability of viable cells to cause alamar Blue to change from its oxidized (non-fluorescent, blue) to a reduced (fluorescent, red) form were evaluated. With the results obtained from the alamarBlue reaction, cell proliferation was quantified and metabolic activity of viable cells examined. […]
RECORDED ENDPOINT: LC50 (50% lethal concentration) (µM)
Field: numeric (µM). Do not append units.

Request the reported LC50 (50% lethal concentration) associated with CCn1c2ccccc2c2cc(C3=NCCc4c3[nH]c3ccccc43)ccc21 [Compound 29]
15

====

test system: HT-29 (human colon adenocarcinoma); test: Growth inhibition of tumor cell line HT-29 (Table 1); assay type: cell-based; conditions: 6 day drug exposure; columns A/B = scaffold type
RECORDED ENDPOINT: IC50, concentration inhibiting 50% of the growth of HT-29 (µg/mL)
Field: numeric (µg/mL). Do not append units.

CCn1c2ccccc2c2cc(C3NCCc4c3[nH]c3ccccc43)ccc21 (centres unmarked)	0.5

Request the reported IC50, concentration inhibiting 50% of the growth of HT-29 associated with c1ccc2c(c1)Cc1cc(C3NCCc4c3[nH]c3ccccc43)ccc1-2 (centres unmarked)
0.5

Request the reported IC50, concentration inhibiting 50% of the growth of HT-29 associated with O=[N+]([O-])c1cc(C2NCCc3c2[nH]c2ccccc32)cc2c1OCO2 (centres unmarked)
1.4

Request the reported IC50, concentration inhibiting 50% of the growth of HT-29 associated with CCN(CC)c1ccc(C2NCCc3c2[nH]c2ccccc32)cc1 (centres unmarked)
1.1
